Test system: HT-29
MEASUREMENT DESCRIPTION: NCI tumour cell line growth inhibition, 48 h
Active and inactive are the calls of the source. Cut-off read from the data, not from the text of the source: active = GI50 up to about 1.1 µM and inactive = higher.
OUTCOME MEASURE: GI50

# annotated cases, reported GI50 shown
Cc1ccc(S(=O)(=O)C2CC2(Cl)Cl)cc1 (stereo unspecified) : 18.8 µM (inactive)
C1=N\CCN2CCN(CC/N=C\c3ccc(cc3)OCc3cccc(n3)COc3ccc/1cc3)CC2 : > 50 µM (inactive)

Need GI50 for each of these compounds.
1. CC(C)OC(=O)c1ccc(NCc2cc(O)ccc2O)cc1
2. COCn1c2ccc(OC(C)=O)cc2c2c(=O)oc(N(C)C)nc21
3. CCOC(=O)C(=O)C(/C(=N/N(C)C)C(=O)Nc1ccc(C)cc1C)c1nc2ccccc2nc1O (stereo unspecified)

Outgoing:
1: 13.7 µM (inactive); 2: > 100 µM (inactive); 3: > 100 µM (inactive)

Need GI50 for each of these compounds.
1. CN(C)c1ccc(C2SCC(=O)N2c2ccc(Oc3ccc(Cl)cc3)c(Cl)c2)cc1 (stereo unspecified)
2. C[Si](C)(c1ccccc1)C1CC(=O)CC(=O)C1
3. CCN(CC)CCOc1ccccc1/C=C/c1noc2ccccc12
4. CCOc1ccc(NC(=O)CC2C(=O)Nc3ccccc3[S+]2[O-])cc1 (stereo unspecified)
5. Nc1nc(Cl)cc(NCC2(CO)CC(CCCc3ccccc3)C2)n1 (stereo unspecified)
6. C=Cc1c(-c2ccccc2)cnc2[nH]c3ccccc3c12

Outgoing:
1. 20.2 µM (inactive)
2. > 100 µM (inactive)
3. 2.27 µM (inactive)
4. > 100 µM (inactive)
5. 25.4 µM (inactive)
6. > 50 µM (inactive)

// data source = ChEMBL document CHEMBL1201862
